system.name: glucagon receptor, P47871
Sequence (P47871 26-477 limits assumed): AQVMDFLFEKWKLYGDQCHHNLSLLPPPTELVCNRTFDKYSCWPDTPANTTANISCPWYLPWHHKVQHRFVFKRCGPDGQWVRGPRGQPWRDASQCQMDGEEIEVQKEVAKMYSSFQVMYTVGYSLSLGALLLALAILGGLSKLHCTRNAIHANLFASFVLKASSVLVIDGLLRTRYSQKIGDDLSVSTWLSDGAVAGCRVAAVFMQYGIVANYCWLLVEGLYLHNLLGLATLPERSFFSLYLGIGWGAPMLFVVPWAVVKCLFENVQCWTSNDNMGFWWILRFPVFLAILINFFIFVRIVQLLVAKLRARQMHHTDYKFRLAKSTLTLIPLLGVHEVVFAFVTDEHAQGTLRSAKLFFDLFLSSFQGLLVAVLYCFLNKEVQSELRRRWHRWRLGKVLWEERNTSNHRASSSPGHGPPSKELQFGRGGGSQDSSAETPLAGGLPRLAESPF
protocol.text: receptor binding, method not described
PLA = 3-phenyllactic acid (2-hydroxy-3-phenylpropanoic acid)
outcome.measure: IC50 (nM)

| binder | outcome.measure | unit.symbol | value |
| --- | --- | --- | --- |
| {PLA}-TSEYSKYLDSRRAQDFVQWLMNTGPSSGAPPPS-NH2 [[PLA6, E9]Glucagon (aa6-29 + CEX)-NH2] | IC50 | nM | 40.3 |
